protocolDescription: amyloid nucleation score (Sup35N fusion, yeast selection) (log enrichment); library NNK2; higher = more nucleation; inactive = no reads after selection;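 note: zero at mode of non-aggregating sequences after 7 days selection at 30°C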
resultType: amyloid nucleation score

CFRFLGREECKLTFGSDEMI	inactive
YNVTYLLRCFSILVSRVLKV	inactive
EAFYLSFFN	inactive
TYEIFLVPS	0.41

====

protocolDescription: amyloid nucleation score (Sup35N fusion, yeast selection) (log enrichment); library NNK2; higher = more nucleation; inactive = no reads after selection
resultType: amyloid nucleation score

Study these solved cases before continuing.
CVMALVYACRAAHTRPMAYS	inactive
HSMAWNVG	inactive
CLIVFIADTAAYIKVSMSSV	inactive
FFTMCVAMYVVRSAYGMHN	-0.03
MCGSDNYILGLFWVYFMTNF	inactive
DLRYTMYYDCFCYVFCPSMT	8.17

Please give amyloid nucleation score for each item listed below.
1. YMSPAH
2. RRALIWIAIHECIRTTPHLL
3. MVFAPIVYEIKRDIKMLFGA
4. NDDTDQLSTSSIGRRMRMR
5. STLVDGGTGYMCYFFAWHQS
6. IRVRGFPSSHRSV
7. FHLRWRFSSSSNNITRRRCR

Result:
1. 0.606
2. -0.434
3. 5.95
4. 0.662
5. inactive
6. -0.901
7. 0.115

Please give amyloid nucleation score for each item listed below.
1. HYSGGCSLPSVKERVGTSIG
2. GTLFIRSPYFCL
3. MVVGIAVYRCSFNRTDLFPS
4. SFIHFPFWFILHNRALTRRV
5. SHNVGYCSVSCSCTWWHSCV

Result:
-0.604
-0.478
0.655
0.057
inactive

Query: Quick one: amyloid nucleation score of FKGVCCMHNELASIDQWVGG ?
Result: 0.192

====

protocolDescription: amyloid nucleation score (Sup35N fusion, yeast selection) (log enrichment); library NNK3; higher = more nucleation; inactive = no reads after selection
resultType: amyloid nucleation score

VCYKPFTSVYLVCTYHLFKS	inactive
SWSGCGLVPSSVSWGYGTCV	-0.47
VEDWATILSYY	inactive
WYSNYCMIDRHGVFEVVSCM	inactive

====

protocolDescription: amyloid nucleation score (Sup35N fusion, yeast selection) (log enrichment); library NNK3; higher = more nucleation; inactive = no reads after selection
resultType: amyloid nucleation score

Study these solved cases before continuing.
GLERLMDPLGNHRVRGDRVG	inactive
DGFYYSALLMFLV	inactive
RRAVVLSVRGWRSAVTSRFS	inactive
DELTNLPCY	-0.405
VFSNGSRDAWSFFNQKSNRF	0.193
RISLDNTWGFL	inactive

Please give amyloid nucleation score for each item listed below.
1. YSVTAHPLDHTNPRGNYPDH
2. FFISDVGETC
3. FDLWFIRIGV
4. IWVSYWAGFVRSFSRVCNLV
5. YILSTLAFFGDRNYDMVLGC
6. TSWRVFVGYWMG
7. CWTVMFCF

Result:
inactive
inactive
-0.221
inactive
inactive
inactive
1.43

Please give amyloid nucleation score for each item listed below.
1. VRLYADNNLSAITKLLCPKN
2. RSVRFFVKMINFFASY
3. STAWALAIAAVDRNFDSGWW
4. LGGTSNLMFGYMK
5. TVICISHTFSGHCLSSYEVW
6. RCELCMSIKGLAVNNIR
7. TVFMYRRVFSIRWG
8. KGLVLAYILSRSVFERFKGG

Result:
inactive
1.04
0.009
inactive
inactive
1.9
inactive
inactive

Query: Quick one: amyloid nucleation score of FISPVL ?
Result: inactive
